B1: tRNA (parent)
chain: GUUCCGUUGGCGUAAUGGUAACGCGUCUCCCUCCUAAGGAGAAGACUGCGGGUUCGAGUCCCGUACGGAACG

variants of: B1; experiment: yeast fitness relative to wild type (ratio to wild type); higher = fitter; tRNA-Arg(CCU), competitive growth, 37 C, YPD
This sample holds only a part of the variants without activity.

{"Variant name": "U28G C34A U35C", "yeast fitness": "≤ 0.5"}
{"Variant name": "G12C C24G C27U A43U G67A", "yeast fitness": "≤ 0.5"}
{"Variant name": "G9A C33G G44A C49G", "yeast fitness": 0.607}
{"Variant name": "A37G G44A C66U", "yeast fitness": 0.731}
{"Variant name": "C34A G52C G63C", "yeast fitness": 0.681}
{"Variant name": "C4A A15C A43G", "yeast fitness": "≤ 0.5"}
{"Variant name": "U13C U26A", "yeast fitness": 0.982}
{"Variant name": "C11A A14C C34A A70U", "yeast fitness": "≤ 0.5"}
{"Variant name": "G39A C46U", "yeast fitness": 0.978}
{"Variant name": "A15U U32A G44A A65C", "yeast fitness": "≤ 0.5"}
{"Variant name": "A21G C46G", "yeast fitness": 0.987}
{"Variant name": "U7A A15U", "yeast fitness": 0.587}
{"Variant name": "C4G C27A C46U G58C A70C", "yeast fitness": "≤ 0.5"}
{"Variant name": "C55U C62U G67C", "yeast fitness": "≤ 0.5"}
{"Variant name": "G9A U13A A69U", "yeast fitness": 0.811}
{"Variant name": "A36U A69U", "yeast fitness": 0.623}
{"Variant name": "U8A G25C A37C A65C", "yeast fitness": "≤ 0.5"}
{"Variant name": "U7A A36U", "yeast fitness": 0.607}
{"Variant name": "C4G C11G U13A U59G C61G", "yeast fitness": "≤ 0.5"}
{"Variant name": "U7C A36G A57U", "yeast fitness": 0.566}
{"Variant name": "G17A A20C G25A C66A G68C", "yeast fitness": "≤ 0.5"}
{"Variant name": "U3C C22G C27A C49U", "yeast fitness": "≤ 0.5"}
{"Variant name": "C46G C49U A65U A69C", "yeast fitness": "≤ 0.5"}
{"Variant name": "C4U C27A", "yeast fitness": 0.737}
{"Variant name": "C5A U35C C66U", "yeast fitness": 0.579}
{"Variant name": "U16C C31U C55U", "yeast fitness": 0.659}
{"Variant name": "G10C C24U G68C", "yeast fitness": "≤ 0.5"}
{"Variant name": "U2G G9C A14C C27U G58A", "yeast fitness": "≤ 0.5"}
{"Variant name": "G44A A45G G51C C66U A69C", "yeast fitness": 0.576}
{"Variant name": "U19C G48C G56A A69C", "yeast fitness": 0.642}
{"Variant name": "U28C G48A C60A C62U", "yeast fitness": "≤ 0.5"}
{"Variant name": "G6A C31G C34U C46U G56A", "yeast fitness": "≤ 0.5"}
{"Variant name": "U19G A40C", "yeast fitness": 0.732}
{"Variant name": "G9A U13G A36G", "yeast fitness": 0.574}
{"Variant name": "U7C A20G A40U", "yeast fitness": 0.597}
{"Variant name": "G10A C24U G41A C49U U53A C66G", "yeast fitness": "≤ 0.5"}
{"Variant name": "G10C U13C A15C C24U U54C C60A C62A", "yeast fitness": "≤ 0.5"}
{"Variant name": "G51C C60U G63A U64G", "yeast fitness": "≤ 0.5"}
{"Variant name": "A20U U28G C30U U32G C34G", "yeast fitness": "≤ 0.5"}
{"Variant name": "U16A A21G C27G C46U", "yeast fitness": 0.566}
{"Variant name": "C11U A21U", "yeast fitness": 1.02}
{"Variant name": "G9U G50A", "yeast fitness": 0.663}
{"Variant name": "C11A U59C C66U A70C", "yeast fitness": "≤ 0.5"}
{"Variant name": "U7G U54C C55G", "yeast fitness": "≤ 0.5"}
{"Variant name": "U7C A36U C49G", "yeast fitness": 0.744}
{"Variant name": "G44C C60G", "yeast fitness": 0.59}
{"Variant name": "G10A C29G U53A G56C C62G A69C", "yeast fitness": "≤ 0.5"}
{"Variant name": "C34U U35C A40C", "yeast fitness": "≤ 0.5"}
{"Variant name": "U7C A20G A21G", "yeast fitness": 0.562}
{"Variant name": "C30A A36C C46G", "yeast fitness": 0.532}
{"Variant name": "C11U C33G A36U A42G", "yeast fitness": "≤ 0.5"}
{"Variant name": "C22U A36C C60G", "yeast fitness": "≤ 0.5"}
{"Variant name": "A20C U59A A65C A70C", "yeast fitness": "≤ 0.5"}
{"Variant name": "G10C C33G A43G C46G C62G", "yeast fitness": 0.562}
{"Variant name": "G9C A42G C62G A69G", "yeast fitness": "≤ 0.5"}
{"Variant name": "C11G U19C A45U", "yeast fitness": "≤ 0.5"}
{"Variant name": "U7C C22G A40U A69C", "yeast fitness": 0.574}
{"Variant name": "U7G A20U", "yeast fitness": 0.742}
{"Variant name": "G12C U19A C27G", "yeast fitness": 0.692}
{"Variant name": "U19C G39C G41C", "yeast fitness": 0.51}
{"Variant name": "C31A G68U A69C", "yeast fitness": "≤ 0.5"}
{"Variant name": "U2G U3C G10C A69C", "yeast fitness": "≤ 0.5"}
{"Variant name": "G10A A57C U59C", "yeast fitness": "≤ 0.5"}
{"Variant name": "C4U U19A", "yeast fitness": 1.04}
{"Variant name": "A14C C31U", "yeast fitness": 0.706}
{"Variant name": "C29A G58A C61G A70U", "yeast fitness": 0.642}
{"Variant name": "G10C C31G C33U C60U", "yeast fitness": "≤ 0.5"}
{"Variant name": "C4U G41C C61A", "yeast fitness": "≤ 0.5"}
{"Variant name": "A15U G25A C27A C33U", "yeast fitness": 0.512}
{"Variant name": "G18A C27U C31A", "yeast fitness": "≤ 0.5"}
{"Variant name": "G12A C49A G68A", "yeast fitness": "≤ 0.5"}
{"Variant name": "C4U C30U C31G", "yeast fitness": 0.583}
{"Variant name": "U7C U32A", "yeast fitness": 0.761}
{"Variant name": "U8G U26A A40G A43C C55G C60A", "yeast fitness": "≤ 0.5"}
{"Variant name": "U16A A70C", "yeast fitness": 0.897}
{"Variant name": "U53C A57G", "yeast fitness": 0.79}
{"Variant name": "G10A G23C C29U A36C C49G A70C", "yeast fitness": 0.553}
{"Variant name": "A15C C27G G48A C49G", "yeast fitness": "≤ 0.5"}
{"Variant name": "C4A U28G G48A C49G G50U", "yeast fitness": "≤ 0.5"}
{"Variant name": "C5U A20C C29U C34A C46A G50A A57U", "yeast fitness": "≤ 0.5"}
{"Variant name": "U2C A65G G68A A69C", "yeast fitness": 0.563}
{"Variant name": "A20U C30A G52A A65U", "yeast fitness": "≤ 0.5"}
{"Variant name": "C5A G25A C29A C30U", "yeast fitness": 0.758}
{"Variant name": "A21G C61G G67A", "yeast fitness": "≤ 0.5"}
{"Variant name": "C33A A43C G50A A57U C60G", "yeast fitness": "≤ 0.5"}
{"Variant name": "C24G G44C G68U", "yeast fitness": 0.663}
{"Variant name": "U8A A36C U53C", "yeast fitness": "≤ 0.5"}
{"Variant name": "C27A A37C C62G", "yeast fitness": "≤ 0.5"}
{"Variant name": "G18C C29U C30U G67A", "yeast fitness": "≤ 0.5"}
{"Variant name": "G17A C46G", "yeast fitness": 0.712}
{"Variant name": "C27G G38A G48C", "yeast fitness": 0.538}
